- protocol.details: Clearance in dog at 2 mg/kg, iv
- Assay type: ADME, organism-based, Canis lupus familiaris
- Design: dose 2 mg/kg, route intravenous
- test.settings: in vivo
reported.metric: clearance (mL/min/kg)

[[record]]
smiles_repr = "Cn1c(-c2cnccn2)c(C2CCCC2)c2ccc(C(=O)NC3(C(=O)Nc4ccc(/C=C/C(=O)O)cc4)CCC3)cc21"
measured_result = 4.3


---

- protocol.details: Permeability across human Caco2 cells at pH 7.4
- Assay type: ADME, cell-based
- test.settings: Caco-2, pH 7.4, read-out: permeability
reported.metric: Papp (×10⁻⁶ cm/s)

[[record]]
smiles_repr = "CN1CC[C@@](NC(=O)c2ccc3c(C4CCCC4)c(-c4cccc(N)n4)n(C)c3c2)(C(=O)Nc2ccc(/C=C/C(=O)O)cc2)C1"
reported_metric = "Papp"
measured_result = 2.9

[[record]]
smiles_repr = "Cn1c(-c2ccoc2)c(C2CCCC2)c2ccc(C(=O)NC3(C(=O)Nc4ccc(/C=C/C(=O)O)cc4)CCC3)cc21"
reported_metric = "Papp"
measured_result = 7.5

[[record]]
smiles_repr = "Cc1ccc(-c2c(C3CCCC3)c3ccc(C(=O)NC4(C(=O)Nc5ccc(/C=C/C(=O)O)cc5)CCC4)cc3n2C)nc1"
reported_metric = "Papp"
measured_result = 6.9

[[record]]
smiles_repr = "COc1ccc(-c2c(C3CCCC3)c3ccc(C(=O)NC4(C(=O)Nc5ccc(/C=C/C(=O)O)cc5)CCC4)cc3n2C)cn1"
reported_metric = "Papp"
measured_result = 1.5

